Biological target: human insulin (Homo sapiens, UniProt P01308;P01308 25-54;90-110)
Sequence (P01308 25-54, chain 1 of 2): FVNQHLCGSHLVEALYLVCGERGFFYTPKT
Sequence (P01308 90-110, chain 2 of 2): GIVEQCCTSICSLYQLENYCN
Assay: graphene field-effect transistor
measured.attribute: Kd
# answer = value followed by unit

Please fill in: Kd reported for GGTGGTGGGGGGGGTTGGTAGGGTGTCTTC (structured_DNA, 5'-NH2 (amine)) [IGA3] = 35 nM

The reported numbers originate from paper PMC7875320.
